System Under Test: T1, human neuropeptide Y2 receptor (human, UniProt P49146 1-381)
T1 sequence (looked up): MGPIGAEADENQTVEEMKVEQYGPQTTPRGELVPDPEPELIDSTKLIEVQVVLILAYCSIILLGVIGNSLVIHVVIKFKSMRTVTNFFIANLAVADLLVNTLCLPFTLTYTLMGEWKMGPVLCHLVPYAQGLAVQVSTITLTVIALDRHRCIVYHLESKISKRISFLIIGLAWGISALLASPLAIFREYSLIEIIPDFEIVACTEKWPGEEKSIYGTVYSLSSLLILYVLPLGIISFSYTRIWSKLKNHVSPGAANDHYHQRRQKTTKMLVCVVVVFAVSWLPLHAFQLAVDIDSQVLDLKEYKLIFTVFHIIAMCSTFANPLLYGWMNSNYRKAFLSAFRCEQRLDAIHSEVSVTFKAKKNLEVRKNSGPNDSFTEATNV
Assay Remarks: cell-based or functional assay
Starred links: 1 amine or outer side, 2 acyl side, 3 side chain; linkers in the order of their positions; H or OH if unused. Non-standard residues stand in square brackets, D forms with d. Groups on a side chain read outwards from the residue. No end group written: not given here. *: point of attachment. C18 diacid = O=C(O)CCCCCCCCCCCCCCCCC(=O)*; γGlu = O=C(O)[C@H](CCC(=O)[*:2])N[*:1]; Aib = CC(C)(N)C(=O)O
Measured Metric: EC50 hNPY2R 0.5% hP (CreLuc)
Entry format: amount then unit.

1. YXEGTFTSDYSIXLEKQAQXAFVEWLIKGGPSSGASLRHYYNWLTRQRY (Aib at 2, 13, 20; K28 side chain acylated with C18DA-gGlu-gGlu-gGlu-gGlu-gGlu-gGlu-eLys; C-terminal amide (NH2)) [Compound 259] :: 10.7 nM
2. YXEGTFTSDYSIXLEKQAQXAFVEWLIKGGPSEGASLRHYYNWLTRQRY (Aib at 2, 13, 20; K28 side chain acylated with C20DA-gGlu-gGlu-gGlu-gGlu-gGlu; C-terminal amide (NH2)) [Compound 289] :: 11.1 nM
3. Y[Aib]EGTFTSDYSI[Aib]LEKQAQ[Aib]AFVQWLIK([Glu-Glu-Glu-Glu-C18 diacid])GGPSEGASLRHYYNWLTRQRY-NH2 (also: TFA salt) [Compound 281] :: 23 nM
4. Y[Aib]EGTFTSDYSI[Aib]LEKQAQ[Aib]AFVEWLIK([Glu-Glu-Glu-Glu-C18 diacid])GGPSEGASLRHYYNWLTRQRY-NH2 (also: TFA salt) [Compound 291] :: 14.3 nM

Now consider the entry below.
(Q) What does the record list as EC50 hNPY2R 0.5% hP (CreLuc) for Y[Aib]EGTFTSDYSI[Aib]LEKQAE[Aib]AFVEWLIK([γGlu-γGlu-γGlu-γGlu-C18 diacid])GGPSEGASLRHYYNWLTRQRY-NH2 (also: TFA salt) [Compound 262] ?
(A) 13.2 nM
